- TARGET SYSTEM: ABCG2 (Homo sapiens)
- Sequence (Q9UNQ0 whole entry): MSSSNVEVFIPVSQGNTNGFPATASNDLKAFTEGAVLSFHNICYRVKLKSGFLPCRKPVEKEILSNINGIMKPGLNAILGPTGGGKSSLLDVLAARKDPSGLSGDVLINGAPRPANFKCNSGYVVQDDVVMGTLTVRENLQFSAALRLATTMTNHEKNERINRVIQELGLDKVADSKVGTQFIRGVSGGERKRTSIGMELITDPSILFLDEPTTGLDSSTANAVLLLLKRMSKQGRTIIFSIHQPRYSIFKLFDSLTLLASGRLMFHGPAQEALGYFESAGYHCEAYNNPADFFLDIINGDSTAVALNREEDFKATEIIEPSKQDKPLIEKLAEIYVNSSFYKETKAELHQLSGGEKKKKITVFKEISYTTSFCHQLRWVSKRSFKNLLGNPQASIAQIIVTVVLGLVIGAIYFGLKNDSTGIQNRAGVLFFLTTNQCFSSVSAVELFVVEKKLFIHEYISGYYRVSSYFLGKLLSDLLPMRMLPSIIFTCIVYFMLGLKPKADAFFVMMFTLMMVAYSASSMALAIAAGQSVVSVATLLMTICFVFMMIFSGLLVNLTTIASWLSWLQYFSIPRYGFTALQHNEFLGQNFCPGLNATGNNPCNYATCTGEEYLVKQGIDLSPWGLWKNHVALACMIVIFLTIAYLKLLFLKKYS
- PROTOCOL DESCRIPTION: vanadate-sensitive ATPase stimulation in membrane vesicles
RECORDED METRIC: EC50

INSERT INTO assay_data (molecule, recorded_metric, measured_result) VALUES
  ('COc1cc2c(cc1OC)CN(C(=O)/C=C/c1c(-c3ccccc3)n(C)c3ncccc13)CC2 [SIS3]', 'EC50', '~60 nM');

---

- TARGET SYSTEM: ABCB1 (Homo sapiens)
- Sequence (P08183 whole entry): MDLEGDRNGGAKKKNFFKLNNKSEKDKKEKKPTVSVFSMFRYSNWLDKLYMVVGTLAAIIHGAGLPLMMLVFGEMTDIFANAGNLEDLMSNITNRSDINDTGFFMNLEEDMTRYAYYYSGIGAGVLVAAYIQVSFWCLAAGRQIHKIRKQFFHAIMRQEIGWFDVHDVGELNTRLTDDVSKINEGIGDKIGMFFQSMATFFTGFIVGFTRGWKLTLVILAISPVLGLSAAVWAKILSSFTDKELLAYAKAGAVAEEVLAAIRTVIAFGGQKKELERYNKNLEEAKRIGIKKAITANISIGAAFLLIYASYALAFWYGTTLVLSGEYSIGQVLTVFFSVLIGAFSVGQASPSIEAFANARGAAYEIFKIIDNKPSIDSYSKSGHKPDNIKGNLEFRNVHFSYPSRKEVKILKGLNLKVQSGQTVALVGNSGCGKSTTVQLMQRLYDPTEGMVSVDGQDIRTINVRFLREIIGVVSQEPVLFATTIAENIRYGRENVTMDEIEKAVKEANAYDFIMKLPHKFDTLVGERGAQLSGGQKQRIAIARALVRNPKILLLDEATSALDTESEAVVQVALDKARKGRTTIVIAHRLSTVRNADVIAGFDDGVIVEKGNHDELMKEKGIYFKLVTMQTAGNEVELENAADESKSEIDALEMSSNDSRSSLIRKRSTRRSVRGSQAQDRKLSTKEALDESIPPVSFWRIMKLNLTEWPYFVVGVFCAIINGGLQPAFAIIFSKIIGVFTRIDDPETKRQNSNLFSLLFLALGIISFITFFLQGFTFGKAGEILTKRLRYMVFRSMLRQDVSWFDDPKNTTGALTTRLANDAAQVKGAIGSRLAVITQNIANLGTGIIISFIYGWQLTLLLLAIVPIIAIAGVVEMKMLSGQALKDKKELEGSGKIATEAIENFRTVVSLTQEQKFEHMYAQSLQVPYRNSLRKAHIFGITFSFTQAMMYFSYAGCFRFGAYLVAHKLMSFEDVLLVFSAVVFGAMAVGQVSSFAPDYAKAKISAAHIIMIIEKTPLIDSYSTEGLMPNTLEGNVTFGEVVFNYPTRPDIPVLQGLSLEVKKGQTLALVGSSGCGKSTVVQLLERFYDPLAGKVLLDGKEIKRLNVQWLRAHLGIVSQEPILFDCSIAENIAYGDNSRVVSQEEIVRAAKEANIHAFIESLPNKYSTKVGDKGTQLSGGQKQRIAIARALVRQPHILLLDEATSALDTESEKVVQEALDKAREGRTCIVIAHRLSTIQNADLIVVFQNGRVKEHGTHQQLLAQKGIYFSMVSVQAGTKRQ
- PROTOCOL DESCRIPTION: vanadate-sensitive ATPase stimulation in membrane vesicles
RECORDED METRIC: EC50

INSERT INTO assay_data (smi, target_system, measured_result) VALUES
  ('COc1cc2c(cc1OC)CN(C(=O)/C=C/c1c(-c3ccccc3)n(C)c3ncccc13)CC2', 'ABCB1 (Homo sapiens)', '~160 nM');
